Assay: physchem
Settings: organic solvent or mixture
PARAMETER: solubility (µg/mL)
The response must be a number in µg/mL with no trailing unit.

QUERY: Return reported solubility; argument: CCCCCCCCCCCCCCCCCC(=O)[O][Pt]([NH2])([NH2])[n+]1cc2ccccc2c2ccccc21 [Compound 27, phenantriplatin (stearate) nitrate]
RESULT: 1500

* * *

Experiment: physchem
PARAMETER: solubility

QUERY: # lookup: solubility of CCCCCCCCCCCCCCCCCC(=O)[O][Pt]([NH2])([NH2])[n+]1cc2ccccc2c2ccccc21 [Compound 27, phenantriplatin (stearate) nitrate]
RESULT: < 100 µg/mL
